biological target: PPARγ LBD (Homo sapiens, UniProt P37231)
Sequence (P37231 238-503 limits assumed): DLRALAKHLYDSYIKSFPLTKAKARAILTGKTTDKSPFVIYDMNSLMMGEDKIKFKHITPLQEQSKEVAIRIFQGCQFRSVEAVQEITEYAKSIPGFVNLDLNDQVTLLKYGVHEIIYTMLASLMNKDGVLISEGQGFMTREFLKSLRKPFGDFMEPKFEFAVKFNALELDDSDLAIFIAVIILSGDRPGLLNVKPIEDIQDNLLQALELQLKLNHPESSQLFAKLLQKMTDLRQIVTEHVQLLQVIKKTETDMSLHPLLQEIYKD
Readout: Ki (nM)
Give the number; nM is assumed, so skip it.

-- ask Provide measured Ki on PPARγ LBD (Homo sapiens, UniProt P37231) for CC1(C)CCC2(C(=O)O)CCC3(C)C(C(=O)C=C4C5(C)C=C(C#N)C(=O)C(C)(C)C5CCC43C)C2C1 (stereo not shown) [CDDO] please.
-- reply 12

====

test system: NB4; experiment: Growth inhibition of leukemic cell line; format: cell-based, human
Readout: pIC50
Quick note: pIC50 means taking -log10 of the concentration in moles per liter.

-- ask Give the measured pIC50 for `COC(=O)[C@]12CCC(C)(C)C[C@H]1[C@H]1C(=O)C=C3[C@@]4(C)C=C(C#N)C(=O)C(C)(C)[C@@H]4CC[C@@]3(C)[C@]1(C)CC2`
-- reply 6.57
